Target: α2-GABAA receptor (Homo sapiens, UniProt P18507+P47869)
Construct: expressed in transfected cells
Sequence (P47869 29-451): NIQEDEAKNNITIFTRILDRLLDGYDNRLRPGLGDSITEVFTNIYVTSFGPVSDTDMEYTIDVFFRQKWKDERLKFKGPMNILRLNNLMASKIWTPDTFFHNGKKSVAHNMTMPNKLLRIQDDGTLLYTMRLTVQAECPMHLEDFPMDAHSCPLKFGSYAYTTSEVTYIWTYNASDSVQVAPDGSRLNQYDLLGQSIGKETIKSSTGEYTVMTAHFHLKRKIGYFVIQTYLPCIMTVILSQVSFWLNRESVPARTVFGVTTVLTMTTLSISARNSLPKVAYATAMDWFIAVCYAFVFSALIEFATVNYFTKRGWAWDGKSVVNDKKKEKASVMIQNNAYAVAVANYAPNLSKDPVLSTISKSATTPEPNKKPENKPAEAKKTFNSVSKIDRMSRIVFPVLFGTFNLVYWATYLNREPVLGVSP
Sequence (P18507 40-467 isoform P18507-1 limits assumed): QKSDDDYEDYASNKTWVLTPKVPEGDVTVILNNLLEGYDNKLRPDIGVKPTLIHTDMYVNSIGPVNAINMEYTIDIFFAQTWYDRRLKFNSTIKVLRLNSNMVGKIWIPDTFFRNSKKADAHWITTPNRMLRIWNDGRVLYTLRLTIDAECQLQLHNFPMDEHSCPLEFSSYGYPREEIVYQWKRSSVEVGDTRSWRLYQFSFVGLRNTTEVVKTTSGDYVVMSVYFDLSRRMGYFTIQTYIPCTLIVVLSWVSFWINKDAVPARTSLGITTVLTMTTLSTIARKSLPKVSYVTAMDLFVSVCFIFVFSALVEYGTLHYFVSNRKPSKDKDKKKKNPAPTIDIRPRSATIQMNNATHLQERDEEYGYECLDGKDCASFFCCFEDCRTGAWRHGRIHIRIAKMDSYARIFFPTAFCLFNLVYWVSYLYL
Sequence (P28472 26-473 partner): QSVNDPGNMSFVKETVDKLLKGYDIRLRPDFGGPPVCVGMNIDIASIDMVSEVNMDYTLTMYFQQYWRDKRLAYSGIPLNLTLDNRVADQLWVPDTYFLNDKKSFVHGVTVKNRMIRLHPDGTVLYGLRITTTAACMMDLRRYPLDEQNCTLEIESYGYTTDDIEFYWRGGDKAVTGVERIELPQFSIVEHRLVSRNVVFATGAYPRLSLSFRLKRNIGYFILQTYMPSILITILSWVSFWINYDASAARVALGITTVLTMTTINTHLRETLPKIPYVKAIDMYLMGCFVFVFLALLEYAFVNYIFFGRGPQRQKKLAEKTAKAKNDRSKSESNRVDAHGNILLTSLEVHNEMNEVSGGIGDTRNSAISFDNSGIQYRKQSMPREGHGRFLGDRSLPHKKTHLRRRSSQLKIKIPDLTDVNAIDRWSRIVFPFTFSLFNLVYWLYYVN
Assay: Whole-cell patch-clamp electrophysiology, positive allosteric modulatory activity in α2-GABAAR-HEK293 cells
Type: cell-based
Conditions: compound 100 nM; GABA 0.10 to 0.11 µM (approximately EC7-8); normalized to reference compound CVL-865 (= 100%); read-out: α2-GABAAR Positive allosteric modulatory activity
quantity name: Emax at 0.1 µM (%)
Quick reminder: number only, in %, skip the unit.

Look over these answered cases.
{"molecule": "CCCNC(=O)c1nc2c(-c3cc(C#N)ccc3OC)cccn2c1N", "units text": "%", "Emax at 0.1 µM": 140}
{"molecule": "CCCNC(=O)c1nc2c(-c3ccc(F)cc3OC)c(F)ccn2c1N", "units text": "%", "Emax at 0.1 µM": 88}
{"molecule": "COc1ccc(F)c(F)c1-c1cccn2c(N)c(C(=O)NC3CC(C)C3)nc12 (stereo not shown)", "units text": "%", "Emax at 0.1 µM": 50}
{"molecule": "COc1cccc(F)c1-c1cccn2c(N)c(C(=O)NCC3CC3)nc12", "units text": "%", "Emax at 0.1 µM": 57}
{"molecule": "C=CCNC(=O)c1nc2c(-c3c(F)cccc3OC)cccn2c1N", "units text": "%", "Emax at 0.1 µM": 81}
{"molecule": "CCCNC(=O)c1nc2c(Oc3cc(F)ccc3OC)cccn2c1N", "units text": "%", "Emax at 0.1 µM": 95}

Next molecule, Emax at 0.1 µM to be filled in.
For `COc1cccc(F)c1-c1cccn2c(N)c(C(=O)NCc3ccccn3)nc12` the molecule record lists Emax at 0.1 µM as 35

Just for reference, patent EP4703359A1 is where these values come from.
